The reported numbers originate from ChEMBL document CHEMBL1641362.

# experiment.notes: Inhibition of Pgp-mediated multidrug resistance in doxorubicin-resistant human K562 cells assessed as drug level required for 50% increase in nuclear concentration of pirarubicin by fluorescence assay
# Format: cell-based
# measurement.setup: read-out: I50
pIC50: −log10 of the molar value.
quantity.name: pIC50

COc1cc(C#CC(=O)O[C@H]2CC[C@@H](N(C)[C@H]3CC[C@@H](OC(=O)c4cc(OC)c(OC)c(OC)c4)CC3)CC2)cc(OC)c1OC (mixture of isomers) | 7.15

A: COc1cc(CCC(=O)O[C@H]2CC[C@H](N(C)[C@H]3CC[C@H](OC(=O)c4cc(OC)c(OC)c(OC)c4)CC3)CC2)cc(OC)c1OC (mixture of isomers)
B: COc1cc(C#CC(=O)O[C@H]2CC[C@H](N(C)[C@H]3CC[C@H](OC(=O)c4cc(OC)c(OC)c(OC)c4)CC3)CC2)cc(OC)c1OC
Challenge: Larger number for pIC50: A , or B ? Answer by stating the label of the chosen item.
Response given: B
